test_target: UniProt P08473
Sequence (P08473 whole entry): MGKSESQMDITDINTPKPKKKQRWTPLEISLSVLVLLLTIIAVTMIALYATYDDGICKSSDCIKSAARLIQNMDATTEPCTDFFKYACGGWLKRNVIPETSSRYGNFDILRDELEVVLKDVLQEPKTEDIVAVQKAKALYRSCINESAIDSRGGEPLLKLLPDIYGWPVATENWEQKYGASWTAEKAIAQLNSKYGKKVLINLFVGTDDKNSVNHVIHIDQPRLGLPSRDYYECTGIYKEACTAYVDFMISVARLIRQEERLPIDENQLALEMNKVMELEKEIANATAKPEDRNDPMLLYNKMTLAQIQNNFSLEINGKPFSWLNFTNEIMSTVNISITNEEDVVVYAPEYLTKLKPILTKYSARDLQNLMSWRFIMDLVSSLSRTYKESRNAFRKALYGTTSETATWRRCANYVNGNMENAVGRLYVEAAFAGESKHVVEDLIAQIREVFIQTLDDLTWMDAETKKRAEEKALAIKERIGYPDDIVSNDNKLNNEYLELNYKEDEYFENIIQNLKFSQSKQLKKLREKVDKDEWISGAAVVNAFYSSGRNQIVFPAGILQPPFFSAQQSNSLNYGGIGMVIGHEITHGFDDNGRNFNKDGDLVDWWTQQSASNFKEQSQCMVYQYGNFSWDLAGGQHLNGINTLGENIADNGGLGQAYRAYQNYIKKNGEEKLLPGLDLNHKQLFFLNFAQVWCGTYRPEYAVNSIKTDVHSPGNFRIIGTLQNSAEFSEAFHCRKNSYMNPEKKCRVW
measurement_description: Purified peptidase assay, NEP
conditions: recombinant purified human enzyme; for prodrugs the active form was tested
pIC50: −log10 of the molar value.
# Lookup of reported pIC50 keyed by entry

# smiles, test_target, comparison_sign, pIC50
rows = [
    ("COCCOC[C@H](CC1(C(=O)N[C@H]2CC[C@@H](C(=O)O)CC2)CCCC1)C(=O)O", "UniProt P08473", ">", 7.00),
    ("Cc1nc2ccc(CCCNC(=O)C3(C[C@@H](C)C(=O)O)CCCC3)cc2s1", "UniProt P08473", "=", 8.40),
    ("CC1(C)CCC[C@H](NC(=O)[C@@H](S)Cc2ccccc2)C(=O)N1CC(=O)O", "UniProt P08473", "=", 7.22),
    ("O=C(N[C@H]1CCS[C@H]2CCC[C@@H](C(=O)O)N2C1=O)[C@@H](S)Cc1ccccc1", "UniProt P08473", "=", 7.40),
]
